Tested on: T1, human tau (hT40) with P301S and G335D of Line 66 mice (human, UniProt P10636 1-758)
T1 construct: transgene product in brain homogenate or plasma; also called L66 human tau
T1 sequence (P10636 other isoform, or with tags, fused parts or gaps P301S G335D P301S G335D limits assumed): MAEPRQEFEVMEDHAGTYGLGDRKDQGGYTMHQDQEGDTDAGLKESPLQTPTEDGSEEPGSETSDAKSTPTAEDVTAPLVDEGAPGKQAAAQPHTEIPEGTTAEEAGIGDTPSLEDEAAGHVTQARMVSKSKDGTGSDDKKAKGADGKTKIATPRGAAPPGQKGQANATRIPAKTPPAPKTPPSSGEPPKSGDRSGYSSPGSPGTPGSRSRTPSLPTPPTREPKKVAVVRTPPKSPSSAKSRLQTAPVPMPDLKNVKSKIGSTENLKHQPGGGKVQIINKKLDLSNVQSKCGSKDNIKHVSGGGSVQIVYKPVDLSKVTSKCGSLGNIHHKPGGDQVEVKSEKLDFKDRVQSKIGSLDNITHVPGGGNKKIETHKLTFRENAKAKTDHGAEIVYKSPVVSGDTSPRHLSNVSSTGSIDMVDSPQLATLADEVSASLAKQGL
Run description: Western blot
Readout kind: binding result

[
  {
    "Binder": "CB7 mAb (antibody, mouse IgG2a, V domains shown, sheep-mouse IgG2a chimeric mAb; also called CB7 antibody) VH: QVQLQESGPSLVKPSQTLSLTCTVSGFSLTNYRVGWVRQAPGKALEWVSNIRSGGTTWYNPALKSRLSITADTSKSQVSLSLSSVTTEDTAVYYCARDSSGDLYAYDYWGPGLLVTVSS VL: QAVLTQPSSVSRSLGQSVSMTCSGSSSNVGYGNYMAWFQQVPGSAPKLLIYGATSRASGVPDRFSGSRSGNTATLTISSLQAEDEADYYCASYDSTSGGVFGSGTRLTVLG",
    "Result": "binds"
  }
]

From: patent US20250355001A1
